Measured % accompanies every entry in the list below.
molecular target: phenylethanolamine-N-methyl transferase (Bos taurus); construct: PNMT was partially purified from bovine adrenal medulla; from tissue; host or cells: bovine adrenal medulla; assay: Substrate specificity: cross reactivities of catecholamines and congeners in the radioenzymatic assay for plasma normetanephrine; type: biochemical, bovine; conditions: 500 pg of amine added, sample counts
Sequence (P10938 whole entry): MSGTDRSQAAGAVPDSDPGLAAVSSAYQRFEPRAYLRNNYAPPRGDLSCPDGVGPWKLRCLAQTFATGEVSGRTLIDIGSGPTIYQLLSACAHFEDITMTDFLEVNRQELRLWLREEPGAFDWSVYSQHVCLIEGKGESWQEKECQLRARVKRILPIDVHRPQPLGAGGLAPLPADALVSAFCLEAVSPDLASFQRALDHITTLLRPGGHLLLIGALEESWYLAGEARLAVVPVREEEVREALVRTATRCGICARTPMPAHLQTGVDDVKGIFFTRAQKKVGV
Provide only the numeric value, understood in %.

NCCc1ccc(O)cc1	1.3
CNCC(O)c1ccc(O)c(OC)c1 (stereo not shown)	2.9
NC[C@H](O)c1ccc(O)c(O)c1 [Norepinephrine, norepinephrine]	1.6
CNC[C@H](O)c1ccc(O)c(O)c1 [Epinephrine, epinephrine]	1.3
NCC(O)c1ccc(O)cc1 (stereo not shown)	11.8

Checklist item: % tested on phenylethanolamine-N-methyl transferase (Bos taurus), entry CNCC(O)c1ccc(O)cc1 (stereo not shown) [Synephrine, synephrine] , value?
4.2

Try the compound NCCc1ccc(O)c(O)c1
1.3

Source: patent US4591551A
